target-of-assay: Sphingosine 1-phosphate receptor 3 (Homo sapiens)
assay-remarks: Antagonist activity at human S1P3 receptor expressed in CHO cells assessed as inhibition of agonist-induced calcium mobilization preincubated for 20 mins by Fluo-4/FLIPR method
experimental-endpoint: IC50

* Cc1cc([C@@H](C)Nc2cccc(-c3cc(C)c(C(=O)N[C@@H](C)C(=O)O)c(C)c3)c2)ccc1Cl | > 10 µM

====

target-of-assay: Sphingosine 1-phosphate receptor 5 (Homo sapiens, UniProt Q9H228)
Sequence (Q9H228 whole entry): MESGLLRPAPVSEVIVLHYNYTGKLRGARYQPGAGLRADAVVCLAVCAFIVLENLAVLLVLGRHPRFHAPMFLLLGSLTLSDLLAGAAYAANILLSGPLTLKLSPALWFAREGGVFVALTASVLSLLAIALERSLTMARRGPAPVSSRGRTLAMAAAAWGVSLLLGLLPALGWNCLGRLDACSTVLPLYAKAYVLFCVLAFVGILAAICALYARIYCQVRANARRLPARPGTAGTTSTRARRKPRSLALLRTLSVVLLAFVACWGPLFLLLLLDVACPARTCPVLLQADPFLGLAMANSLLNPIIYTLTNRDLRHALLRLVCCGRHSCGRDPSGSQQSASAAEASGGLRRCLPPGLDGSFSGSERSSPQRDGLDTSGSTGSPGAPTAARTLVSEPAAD
assay-remarks: Agonist activity at human S1P5 receptor expressed in CHO cells by [35S]GTPgammaS binding assay
Type: functional, cell-based
pEC50: −log10 of the molar value.
experimental-endpoint: pEC50

* CCc1cc(/C(C)=N/OCc2ccc(C3CCCCC3)c(C(F)(F)F)c2)ccc1CN1CC(C(=O)O)C1 | 9.01

====

target-of-assay: Sphingosine 1-phosphate receptor 1 (Homo sapiens, UniProt P21453)
Sequence (P21453 whole entry): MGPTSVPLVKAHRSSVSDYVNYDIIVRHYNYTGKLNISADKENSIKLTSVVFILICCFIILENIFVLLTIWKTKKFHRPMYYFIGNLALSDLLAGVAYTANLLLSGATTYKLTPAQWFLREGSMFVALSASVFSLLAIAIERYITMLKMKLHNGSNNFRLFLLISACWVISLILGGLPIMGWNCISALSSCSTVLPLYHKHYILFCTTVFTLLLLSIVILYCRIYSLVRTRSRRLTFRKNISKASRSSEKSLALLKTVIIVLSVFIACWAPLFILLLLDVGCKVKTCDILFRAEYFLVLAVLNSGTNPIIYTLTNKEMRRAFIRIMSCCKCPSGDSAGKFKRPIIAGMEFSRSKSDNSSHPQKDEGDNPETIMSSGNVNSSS
assay-remarks: Antagonist activity at human S1P1 receptor expressed in HEK293 cells assessed as inhibition of S1P-induced decrease in cAMP formation by [35S]GTPgammaS binding assay
pKi: −log10 of the molar value.
experimental-endpoint: pKi

* CCn1c(OC)nnc1[C@@H](C)NS(=O)(=O)c1ccc(F)c(Cl)c1 | 6.60

====

target-of-assay: Sphingosine 1-phosphate receptor 1 (Homo sapiens, UniProt P21453)
assay-remarks: Antagonist activity at human S1P1 receptor expressed in HEK293 cells assessed as inhibition of S1P-induced decrease in cAMP formation by [35S]GTPgammaS binding assay
pIC50: −log10 of the molar value.
experimental-endpoint: pIC50

• CCn1c(OC)nnc1[C@@H](C)NS(=O)(=O)c1ccc(F)c(Cl)c1 = 6.42

====

target-of-assay: Sphingosine 1-phosphate receptor 5 (Homo sapiens, UniProt Q9H228)
assay-remarks: Agonist activity at S1P5 receptor (unknown origin)
experimental-endpoint: EC50 (pM)

• CCCCCCCCc1ccc(CCC(N)(CO)CO)cc1 [FINGOLIMOD] = 300

====

target-of-assay: Sphingosine 1-phosphate receptor 4 (Homo sapiens, UniProt O95977)
Sequence (O95977 whole entry): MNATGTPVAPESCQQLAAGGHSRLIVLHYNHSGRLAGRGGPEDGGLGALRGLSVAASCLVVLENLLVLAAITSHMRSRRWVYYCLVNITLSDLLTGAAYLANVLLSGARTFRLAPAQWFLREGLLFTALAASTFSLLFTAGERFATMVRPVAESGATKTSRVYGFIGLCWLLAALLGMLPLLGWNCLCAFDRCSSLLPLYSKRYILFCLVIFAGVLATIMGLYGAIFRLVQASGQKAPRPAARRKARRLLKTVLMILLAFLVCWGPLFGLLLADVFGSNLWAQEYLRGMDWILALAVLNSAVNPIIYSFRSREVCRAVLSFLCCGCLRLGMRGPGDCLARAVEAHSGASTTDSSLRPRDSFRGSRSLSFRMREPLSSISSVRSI
assay-remarks: Agonist activity at human S1P4 receptor expressed in CHO cells by [35S]GTPgammaS binding assay
Assay type: functional, cell-based
experimental-endpoint: EC50

• CCc1cc(/C(C)=N/OCc2ccc(C3CCCCC3)c(C(F)(F)F)c2)ccc1CN1CC(C(=O)O)C1 [SIPONIMOD] = 750 nM

====

target-of-assay: UniProt Q9H228
assay-remarks: Antagonist activity at human S1P5 receptor expressed in CHO cells after 120 mins by [35S]GTPgammaS binding assay
experimental-endpoint: IC50

* Cc1cc([C@@H](C)Nc2cccc(-c3cc(C)c(C(=O)N[C@@H](C)C(=O)O)c(C)c3)c2)ccc1Cl | > 10 µM

====

target-of-assay: Sphingosine 1-phosphate receptor 3 (Homo sapiens, UniProt Q99500)
Sequence (Q99500 whole entry): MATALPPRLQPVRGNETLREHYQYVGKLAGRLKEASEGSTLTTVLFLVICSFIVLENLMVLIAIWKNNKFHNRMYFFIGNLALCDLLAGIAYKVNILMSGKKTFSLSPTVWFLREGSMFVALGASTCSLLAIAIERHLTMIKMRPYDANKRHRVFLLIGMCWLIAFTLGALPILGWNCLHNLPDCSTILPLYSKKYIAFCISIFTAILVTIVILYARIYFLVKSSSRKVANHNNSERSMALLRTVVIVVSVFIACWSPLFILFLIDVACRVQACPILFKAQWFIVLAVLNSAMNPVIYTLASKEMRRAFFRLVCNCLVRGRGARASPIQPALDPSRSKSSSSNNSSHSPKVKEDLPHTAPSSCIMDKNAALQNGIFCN
assay-remarks: Agonist activity at S1P3 receptor (unknown origin)
experimental-endpoint: EC50 (nM)

- CCCCCCCCc1ccc(CCC(N)(CO)CO)cc1 [FINGOLIMOD]: 3

====

target-of-assay: Sphingosine 1-phosphate receptor 3 (Homo sapiens, UniProt Q99500)
pKi: −log10 of the molar value.
experimental-endpoint: pKi

- CCn1c(OC)nnc1[C@@H](C)NS(=O)(=O)c1ccc(F)c(Cl)c1: 5.31

====

target-of-assay: Sphingosine 1-phosphate receptor 2 (Homo sapiens, UniProt O95136)
Sequence (O95136 whole entry): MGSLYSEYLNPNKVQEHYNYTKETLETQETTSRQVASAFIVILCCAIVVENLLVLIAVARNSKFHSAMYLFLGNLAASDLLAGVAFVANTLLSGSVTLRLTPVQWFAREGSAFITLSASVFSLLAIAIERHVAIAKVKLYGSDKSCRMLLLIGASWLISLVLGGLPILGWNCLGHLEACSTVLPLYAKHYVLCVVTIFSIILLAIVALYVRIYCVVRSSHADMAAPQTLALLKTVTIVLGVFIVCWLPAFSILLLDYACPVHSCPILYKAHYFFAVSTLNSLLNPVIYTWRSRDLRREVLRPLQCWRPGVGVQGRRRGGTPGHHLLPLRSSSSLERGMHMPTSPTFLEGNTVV
assay-remarks: Antagonist activity at human S1P2 receptor expressed in CHO cells assessed as inhibition of agonist-induced calcium mobilization preincubated for 20 mins by Fluo-4/FLIPR method
pIC50: −log10 of the molar value.
experimental-endpoint: pIC50

* Cc1cc([C@@H](C)Nc2cccc(-c3cc(C)c(C(=O)N[C@@H](C)C(=O)O)c(C)c3)c2)ccc1Cl | < 5.00

====

assay-remarks: Half life of the compound
Format: physicochemical
The molecules listed here are annotated with their half-life.
experimental-endpoint: half-life (h)

- Cc1ccc(CCCC(=O)c2ccc(CC[C@@](C)(N)CO)n2C)cc1: 168
- CCC/N=C1\S/C(=C\c2ccc(OC[C@H](O)CO)c(Cl)c2)C(=O)N1c1ccccc1C: 30

====

target-of-assay: Sphingosine 1-phosphate receptor 4 (Homo sapiens, UniProt O95977)
assay-remarks: Agonist activity at S1P4 receptor (unknown origin)
The compounds listed here are annotated with their EC50.
experimental-endpoint: EC50

* CCCCCCCCc1ccc(CCC(N)(CO)CO)cc1 | 0.3 nM
* Cc1cc([C@@H](C)Nc2cccc(-c3cc(C)c(C(=O)N[C@@H](C)C(=O)O)c(C)c3)c2)ccc1Cl | 245 nM
